Sequence of the target: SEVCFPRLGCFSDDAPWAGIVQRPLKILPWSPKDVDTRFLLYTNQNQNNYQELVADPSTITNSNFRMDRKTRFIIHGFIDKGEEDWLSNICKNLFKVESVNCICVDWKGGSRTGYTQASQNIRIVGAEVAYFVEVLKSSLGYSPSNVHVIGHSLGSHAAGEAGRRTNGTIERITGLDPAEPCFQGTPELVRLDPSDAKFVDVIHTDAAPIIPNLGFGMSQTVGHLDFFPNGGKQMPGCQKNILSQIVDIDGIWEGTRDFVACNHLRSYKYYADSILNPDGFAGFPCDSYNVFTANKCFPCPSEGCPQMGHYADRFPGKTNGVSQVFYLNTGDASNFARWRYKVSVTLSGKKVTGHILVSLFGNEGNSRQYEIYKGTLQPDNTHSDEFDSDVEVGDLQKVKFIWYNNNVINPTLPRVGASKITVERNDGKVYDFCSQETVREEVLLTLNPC
experimentalEndpoint: pIC50
Remember the convention: pIC50 equals -log10 of concentration in molar.

Past entries and their recorded results:
# compound, pIC50
data = [
    ("O=C(O[C@@H]1Cc2c(O)cc(O)c(Cc3c(O)c(Cc4c(O)cc(O)c5c4O[C@H](c4cc(O)c(O)c(O)c4)[C@H](OC(=O)c4cc(O)c(O)c(O)c4)C5)c4c(c3O)C[C@@H](OC(=O)c3cc(O)c(O)c(O)c3)[C@@H](c3cc(O)c(O)c(O)c3)O4)c2O[C@@H]1c1cc(O)c(O)c(O)c1)c1cc(O)c(O)c(O)c1 [Trimer (4)]", 6.89),
    ("O=C(O[C@@H]1Cc2c(O)cc(O)c(Cc3c(O)cc(O)c4c3O[C@H](c3cc(O)c(O)c(O)c3)[C@H](OC(=O)c3cc(O)c(O)c(O)c3)C4)c2O[C@@H]1c1cc(O)c(O)c(O)c1)c1cc(O)c(O)c(O)c1 [Oolong homobisflavan A (1), oolong homobisflavan A]", 7.31),
    ("O=C(O[C@@H]1Cc2c(cc(O)c(Cc3c(O)cc(O)c4c3O[C@H](c3cc(O)c(O)c(O)c3)[C@H](OC(=O)c3cc(O)c(O)c(O)c3)C4)c2O)O[C@@H]1c1cc(O)c(O)c(O)c1)c1cc(O)c(O)c(O)c1 [Oolong homobisflavan B (2), oolong homobisflavan B]", 6.97),
]

Kindly consider the entry below.
[ask] What does the record list as pIC50 for O=C(O[C@@H]1Cc2c(cc(O)c(Cc3c(O)cc4c(c3O)C[C@@H](OC(=O)c3cc(O)c(O)c(O)c3)[C@@H](c3cc(O)c(O)c(O)c3)O4)c2O)O[C@@H]1c1cc(O)c(O)c(O)c1)c1cc(O)c(O)c(O)c1 [Oolong homobisflavan C (3), oolong homobisflavan C] ?
[reply] 7.01
